So I've got a bunch of variants here, and I need their abundance fitness values.
B1: Homeobox protein cut-like 1, residues 548 to 629; numbered along this chain, P39880 (parent)
chain: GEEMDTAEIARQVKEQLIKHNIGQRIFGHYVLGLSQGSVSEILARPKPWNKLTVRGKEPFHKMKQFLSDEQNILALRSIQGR

Variants of: B1
Assay: abundance fitness (aPCA) (normalised: wild type 0, dead -1); higher = more abundant; growth selection in yeast, the domain comes from the species named
Settings: Homo sapiens
Give bare numbers.

[[record]]
variant_name = "R77K"
metric_name = "abundance fitness"
measured_value = 0.103


# per-item lookup of abundance fitness; items listed below
1. K64P
2. E58N
3. G81I

Return:
1. -0.917
2. -0.27
3. 0.008

# per-item lookup of abundance fitness; items listed below
1. I79Y
2. I18C
3. L43K
4. L43N
5. H29M
6. L74R
7. P59S

Return:
1: -0.097; 2: 0.014; 3: -1.03; 4: -1; 5: -0.052; 6: -0.041; 7: 0.076

# per-item lookup of abundance fitness; items listed below
1. R55N
2. H61G
3. E2S
4. Y30E
5. M4P

Return:
1. -0.142
2. -0.342
3. -0.087
4. -0.034
5. -0.318

# per-item lookup of abundance fitness; items listed below
1. Q80T
2. L17Q
3. H61V
4. V54T
5. K14T
6. L74V
7. F60W

Return:
1. -0.095
2. -0.612
3. 0.009
4. 0.03
5. -0.396
6. 0.017
7. 0.035
